B1: SPDEF (parent)
chain: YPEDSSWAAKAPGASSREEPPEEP

Variants of: B1
assay-info: protein stability index of a GFP-peptide fusion (GPS, HEK-293T) (PSI 1-6); higher = more stable;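 also: lentivirally expressed fusions sorted by FACS into six bins by GFP to DsRed ratio, PSI derived from sequencing read proportions per bin multiplied by bin number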
setup-conditions: c terminus: a fixed tail appended
measurement-name: protein stability index
Number only, please.

Sample answers from the record:
stdin: Look up protein stability index: P21G
stdout: 4.04

stdin: Look up protein stability index: R17Q
stdout: 4.06

Now look at this entry.
stdin: Look up protein stability index: E22L
stdout: 3.92
